Attribution: ChEMBL document CHEMBL1139569

# EC50 per entry
system: Bile acid receptor (Homo sapiens, UniProt Q96RI1)
Sequence (Q96RI1 whole entry): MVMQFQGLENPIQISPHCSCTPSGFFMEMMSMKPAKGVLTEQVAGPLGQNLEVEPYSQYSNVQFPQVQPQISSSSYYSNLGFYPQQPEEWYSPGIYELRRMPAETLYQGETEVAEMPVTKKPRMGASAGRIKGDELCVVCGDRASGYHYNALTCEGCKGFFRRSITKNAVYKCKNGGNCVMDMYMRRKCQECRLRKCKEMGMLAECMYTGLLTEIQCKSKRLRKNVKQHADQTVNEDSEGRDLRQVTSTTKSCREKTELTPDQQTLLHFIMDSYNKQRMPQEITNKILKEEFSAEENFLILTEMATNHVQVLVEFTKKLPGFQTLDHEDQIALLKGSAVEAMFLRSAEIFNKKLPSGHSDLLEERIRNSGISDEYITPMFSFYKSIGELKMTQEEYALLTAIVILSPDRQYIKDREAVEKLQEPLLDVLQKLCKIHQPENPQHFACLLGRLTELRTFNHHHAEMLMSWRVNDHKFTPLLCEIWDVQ
experiment-description: Effective concentration against farnesoid X receptor (FXR)
value-kind: EC50

>>> result("COC(=O)/C=C/c1cccc(N(Cc2ccc(/C=C/C(=O)OC(C)(C)C)cc2O)C(=O)C2CCCCC2)c1")
"1 µM"
>>> result("CC(C)(C)OC(=O)/C=C/c1ccc(CN(C(=O)C2CCCCC2)c2cccc(/C=C/C(=O)OC(C)(C)C)c2)cc1")
"1 µM"
>>> result("COC(=O)/C=C/c1cccc(N(Cc2ccc(/C=C/c3ccc(F)cc3)cc2)C(=O)C2CCCCC2)c1")
"0.186 µM"
>>> result("COC(=O)/C=C/c1cccc(N(Cc2ccc(-c3c(OC)cccc3OC)cc2)C(=O)NC(C)C)c1")
"0.562 µM"
>>> result("COC(=O)/C=C/c1cccc(N(Cc2cc(OC)cc(OC)c2)C(=O)C2CCCCC2)c1")
"0.603 µM"
>>> result("COC(=O)/C=C/c1cccc(N(Cc2ccc(-c3cccc(C)c3)cc2)C(=O)NC(C)C)c1")
"1.32 µM"
>>> result("COC(=O)/C=C/c1cccc(N(Cc2ccc(-c3ccc(OC(F)(F)F)cc3)cc2)C(=O)C2CCCCC2)c1")
"0.263 µM"
